System name: T1, recombinant LILRB1 (human, UniProt Q8NHL6 24-461)
T1 construct: LILRB1-Fc proteins were also made; also called LILRB1 recombinant proteins
T1 sequence (Q8NHL6 24-461 limits assumed): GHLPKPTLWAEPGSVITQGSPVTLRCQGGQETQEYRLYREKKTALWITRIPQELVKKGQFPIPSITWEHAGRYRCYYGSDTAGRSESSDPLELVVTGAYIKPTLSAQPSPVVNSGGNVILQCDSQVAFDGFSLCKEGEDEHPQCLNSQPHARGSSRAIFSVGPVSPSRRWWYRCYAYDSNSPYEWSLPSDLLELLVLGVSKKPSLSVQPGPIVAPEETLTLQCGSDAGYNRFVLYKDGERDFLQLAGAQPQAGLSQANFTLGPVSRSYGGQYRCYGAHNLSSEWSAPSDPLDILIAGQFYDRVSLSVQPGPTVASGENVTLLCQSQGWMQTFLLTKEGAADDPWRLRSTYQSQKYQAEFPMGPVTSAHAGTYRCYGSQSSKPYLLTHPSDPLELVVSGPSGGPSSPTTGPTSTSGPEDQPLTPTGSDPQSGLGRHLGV
Assay text: BLI (Octet RED96), antibody on biosensor, recombinant LILRB1 in solution;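 further: Background-subtracted sensorgrams fitted with a one-to-one binding model, KD taken as koff over kon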
The reader will find reported koff values listed item by item below.
Report the figure in s⁻¹ without appending any unit label.

Some entries whose results are on file:
>>> reported_value("B1-#176 (antibody, V domains shown, recombinant rabbit IgG) VH: QSLEESEGGLVKPGGTLTLTCTASGFSFSSSYCMCWVRQAPGKGLELIACIYTDSSGATYYASWAKGRFTISKSSSTTITLQMTSLTAADTATYFCARGWDYEDPGYTDTTYFSLWGPGTLVTVSS VL: ELDLTQTPSSVEAAVGGTVTIKCQASQTIYTNLAWYQQKPGQPPNLLIYAASTLASGVSSRFKGSGSGTEFTLTISDLECADAATYYCQSYYGSSTTGNGFGGGTEVEIK")
"5.59e-05"
>>> reported_value("B1-#74 (antibody, V domains shown, recombinant rabbit IgG) VH: QSLEESGGGLVKPGASLTLTCTASGFSLNRYYMCWVRQAPGKGLEWIGCIYSGSGSTYYASWAKGRFTISKTSSTTVTLQMTSLPAADTATYFCGRLDYRVIYAFNLWGPGTLVTISS VL: ELVLTQTPASVSAAVGGTVTINCQASQSIGSGNLAWYQQKPGQPPKLLIYLASTLASGVPPRFKGSGSGTEFTLTISDLECDDAATYYCQYTYYGTTYDNAFGGGTELEIK")
0.00145

Field: next binder
Report koff for B1-#198 (antibody, V domains shown, recombinant rabbit IgG) VH: QSLEESGGGLVKPEGSLTLTCTASGFDLSNNYYICWVRQAPGKGLELIACVDSDLTDSADYASWAKGRFTISKTSSTTVTLQMTSLTAADTATYFCAGSGSGYYYYYGMDLWGPGTLVTISS VL: ELDMTQTPASVSEPVGGTVTIKCQASQSIGSYLAWYQQKPGQPPKLLAFYASTLKSGVPPRFKGSGSGTEFTLTISDLECADAATYYCQSNRLSSSDVNAFGGGTEVEIK
5.92e-06
